Measured OD450 of individual entries
Target: T1, human CD22-ECD-His protein (human, UniProt P20273 20-687)
T1 construct: Made in house in HEK293E; also called hCD22-ECD-His; recombinant human CD22-ECD His protein; not shown: His tag
T1 sequence: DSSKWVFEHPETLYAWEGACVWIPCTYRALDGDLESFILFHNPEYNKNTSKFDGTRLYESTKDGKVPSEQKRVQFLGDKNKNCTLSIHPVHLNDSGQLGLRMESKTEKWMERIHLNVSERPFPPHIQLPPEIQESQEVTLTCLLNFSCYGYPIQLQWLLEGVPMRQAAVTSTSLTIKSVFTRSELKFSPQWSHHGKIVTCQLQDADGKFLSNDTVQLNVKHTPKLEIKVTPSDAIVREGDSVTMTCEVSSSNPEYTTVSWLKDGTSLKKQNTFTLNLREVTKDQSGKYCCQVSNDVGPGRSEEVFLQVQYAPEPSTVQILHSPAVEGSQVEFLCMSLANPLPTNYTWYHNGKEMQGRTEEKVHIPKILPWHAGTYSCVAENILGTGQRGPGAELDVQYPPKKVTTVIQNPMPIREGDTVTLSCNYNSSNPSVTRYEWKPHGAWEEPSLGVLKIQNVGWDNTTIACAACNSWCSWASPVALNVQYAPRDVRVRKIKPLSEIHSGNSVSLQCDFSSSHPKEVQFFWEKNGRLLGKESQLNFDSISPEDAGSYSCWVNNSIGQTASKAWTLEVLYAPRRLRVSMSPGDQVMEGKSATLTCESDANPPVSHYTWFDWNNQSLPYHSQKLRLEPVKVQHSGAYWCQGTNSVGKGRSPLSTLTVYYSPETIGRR
Experiment: ELISA, Ab 100.00 nM

Some solved cases for reference:
F2.127.11 (antibody, human IgG1, lambda, V domains shown, Human-murine chimeric IgG1, lambda) VH: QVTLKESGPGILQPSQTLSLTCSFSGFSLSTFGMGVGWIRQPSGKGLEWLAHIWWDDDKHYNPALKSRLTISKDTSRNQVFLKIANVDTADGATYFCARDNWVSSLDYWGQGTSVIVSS VL: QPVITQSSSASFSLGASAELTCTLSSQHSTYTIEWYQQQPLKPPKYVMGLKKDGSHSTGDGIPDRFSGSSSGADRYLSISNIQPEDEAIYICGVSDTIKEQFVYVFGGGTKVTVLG = 1.92 OD450
F1.250.16 (antibody, human IgG1, kappa, V domains shown, Human-murine chimeric IgG1, kappa) VH: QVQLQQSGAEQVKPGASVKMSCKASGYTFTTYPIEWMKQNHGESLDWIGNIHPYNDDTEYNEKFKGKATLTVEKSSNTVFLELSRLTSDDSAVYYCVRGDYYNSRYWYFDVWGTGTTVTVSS VL: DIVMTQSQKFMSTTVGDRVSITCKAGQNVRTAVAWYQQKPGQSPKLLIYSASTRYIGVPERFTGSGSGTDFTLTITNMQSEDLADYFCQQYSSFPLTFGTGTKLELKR = 3.07 OD450

The record that follows has no OD450 shown yet.
Q) Consider the binder shown here: F2.173.9 (antibody, human IgG1, lambda, V domains shown, Human-murine chimeric IgG1, lambda) VH: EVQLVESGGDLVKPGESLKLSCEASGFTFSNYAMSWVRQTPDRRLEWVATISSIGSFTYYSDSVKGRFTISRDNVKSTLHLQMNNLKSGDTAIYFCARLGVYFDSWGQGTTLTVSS VL: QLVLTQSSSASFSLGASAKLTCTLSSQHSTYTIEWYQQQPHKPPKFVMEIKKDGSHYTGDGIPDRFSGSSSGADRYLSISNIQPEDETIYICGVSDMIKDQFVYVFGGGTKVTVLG What is its recorded OD450?
A) 2.32 OD450
